Reference source for all entries: PubChem BioAssay AID2069

Known inhibition of a selection of molecules
# PROTOCOL_NOTES: HTRF signal interference by compounds, confirmation, artefact control for SUMOylation inhibitor project, biochemical, uHTS (AID 2069)
# CONDITION_NOTES: HTRF interference counterscreen, fluorescence, at 35 µM, hits give high values
The whole screen tested about 1,200 compounds, of which about 210 (18%) were called active. A selection follows.
Quick note: give the figure in %, leave out the unit.

Study these solved cases before continuing.
O=C(Nc1nccs1)c1cc(-c2ccco2)nc2ccccc12
22.2
Cc1cccc(NC(=O)CC2Nc3cccc4cccc(c34)NC2=O)c1 (stereo not drawn)
-17.8
Cc1ccc(NC(=O)CN2C(=O)S/C(=C/c3ccc(O)c([N+](=O)[O-])c3)C2=O)cc1C
-1.6
Nc1ccc(N2CCCCC2)c2nonc12
-23.7
Cc1c(CC(=O)O)c(=O)oc2c(C)c(OCc3ccc(F)cc3Cl)ccc12
-7.8

// lookup inhibition for O=C1NC(=Nc2ccc3ccccc3c2)S/C1=C/c1ccco1
9.5

Any idea what its inhibition is? The molecule is Cc1ccc(C2C(C#N)=C(N)N(c3cccnc3)C3=C2C(=O)CCC3)s1 (stereo not drawn)
10.7

Can you share its inhibition? I mean this molecule: CC(C)N1CCC2(CC1)C(C#N)=C(N)NC(S)=C2C#N
33.9

Which inhibition reading was recorded for the molecule O=C1NC(=O)c2cc(NC(=O)C3CCCCC3)ccc21 ?
25.4

Fill blank: measured inhibition of the molecule COc1ccc(-n2c(N)c(C(=O)NCc3ccco3)c3nc4ccccc4nc32)cc1OC is ____.
11.5

What does the record list as inhibition for CCc1ccc(NC(=S)Nc2cccc3cnccc23)cc1 ?
3.45

Endpoint output: inhibition of O=[N+]([O-])c1cc([N+](=O)[O-])c2nonc2c1Nc1ccc(O)cc1 . Value?
-10.7
